Data provenance: patent US20190117667A1

Test system: human breast adenocarcinoma (MCF7) cells
Test: MTT in vitro cytotoxicity assay, MCF7
Assay type: cell-based
Conditions: triplicate, tested up to 50 μM, read-out: In vitro cytotoxicity IC50 ± S.D., MCF7
Reported IC50 by item:

# annotated cases, reported IC50 shown
{"columns": ["Compound", "Tgt", "Readout label", "Obs value"],
 "data": [
  ["[Cl-].[Cl-].[Pt+2].[Se]=C1NCCCN1.[Se]=C1NCCCN1.[Se]=C1NCCCN1.[Se]=C1NCCCN1 [Complex 6]", "human breast adenocarcinoma (MCF7) cells", "IC50", "> 50 µM"],
  ["CCCN1CCNC1=[Se].CCCN1CCNC1=[Se].CCCN1CCNC1=[Se].CCCN1CCNC1=[Se].[Cl-].[Cl-].[Pt+2] [Complex 4]", "human breast adenocarcinoma (MCF7) cells", "IC50", "> 50 µM"],
  ["CC(C)N1CCNC1=[Se].CC(C)N1CCNC1=[Se].CC(C)N1CCNC1=[Se].CC(C)N1CCNC1=[Se].[Cl-].[Cl-].[Pt+2] [Complex 5]", "human breast adenocarcinoma (MCF7) cells", "IC50", "> 50 µM"],
  ["[Cl-].[Cl-].[Pt+2].[Se]=C1NCCCCN1.[Se]=C1NCCCCN1.[Se]=C1NCCCCN1.[Se]=C1NCCCCN1 [Complex 7]", "human breast adenocarcinoma (MCF7) cells", "IC50", "> 50 µM"],
  ["CCN1CCNC1=[Se].CCN1CCNC1=[Se].CCN1CCNC1=[Se].CCN1CCNC1=[Se].[Cl-].[Cl-].[Pt+2] [Complex 3]", "human breast adenocarcinoma (MCF7) cells", "IC50", "> 50 µM"]
]}

Next, consider the following compound.
The compound [Cl-].[Cl-].[Pt+2].[Se]=C1NCCN1.[Se]=C1NCCN1.[Se]=C1NCCN1.[Se]=C1NCCN1 [Complex 2] on human breast adenocarcinoma (MCF7) cells: IC50 was > 50 µM
